assay-target: Quadruplex DNA
measurement-protocol: Binding affinity to 3'-FAM labeled C9orf72 (G4C2)4 G4 quadruplex DNA (unknown origin) assessed as decrease in fluorescence intensity by fluorescence intensity assay
Type: nucleic-acid assay
pKd: −log10 of the molar value.
property-measured: pKd

>>> reported("COc1c2c(c(O)c3c(=O)c4cccc(O[C@@H]5OC(C(=O)O)=C[C@H](O)[C@H]5O)c4oc13)-c1c(cc(CC(C)=O)c(C(=O)O)c1O)CC2")
2.52
>>> reported("CC(=O)Cc1cc2c(c(O)c1C(=O)O)-c1c(c(O)c3oc4c(O[C@@H]5O[C@H](C(=O)O)[C@@H](O)[C@H](O)[C@H]5O)cccc4c(=O)c3c1O)CC2")
2.55
>>> reported("CC(=O)Cc1cc2c(c(O)c1C(=O)O)-c1c(c(O)c3oc4c(O[C@@H]5OC(C(=O)O)=C[C@H](O)[C@H]5O)cccc4c(=O)c3c1O)CC2")
2.66
